Target: human GLP1-R (Homo sapiens, UniProt P43220)
Assay: GLP1-R internalization assay in HEK293 cells
Type: cell-based
Details: normalized to maximum concentration of GLP-1 (100%)
Starred links: 1 amine or outer side, 2 acyl side, 3 side chain; linkers in the order of their positions; H or OH if unused. Non-standard residues stand in square brackets, D forms with d. Groups on a side chain read outwards from the residue. *: point of attachment. C20 diacid = O=C(O)CCCCCCCCCCCCCCCCCCC(=O)*; C18 diacid = O=C(O)CCCCCCCCCCCCCCCCC(=O)*; γGlu = O=C(O)[C@H](CCC(=O)[*:2])N[*:1]; αMeL = CC(C)C[C@](C)(N)C(=O)O; Orn = NCCC[C@H](N)C(=O)O; Dap = NC[C@H](N)C(=O)O; AEEA = NCCOCCOCC(=O)O; Aib = CC(C)(N)C(=O)O
PARAMETER: Internalization % TOP (%)
Express your answer in %, writing the number without its unit.

Observe how each entry below is paired with its result.
> print(dat)
                                  substance              parameter  test.value
1  H-Y[Aib]QGTFTSDYS[Dap][αMeL]LDKK([AEEA-γGlu-C18 diacid])AQ[Aib]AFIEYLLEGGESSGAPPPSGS-NH2 [Example 360]  Internalization % TOP        66.1
2  H-Y[Aib]QGTFTSDFSK[αMeL]LDKK([AEEA-γGlu-C20 diacid])AQ[Aib]AFIEYLLAGGPSSGEPPPSEG[AEEA]-NH2 [Example 32]  Internalization % TOP        64.4

# context switch: different substance, same Internalization % TOP
## Task // map H-Y[Aib]QGTFTSDFS[Orn][αMeL]LDKK([AEEA-γGlu-C18 diacid])AQ[Aib]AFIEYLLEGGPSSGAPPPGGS[AEEA]-NH2 [Example 66] to recorded Internalization % TOP (system: human GLP1-R (Homo sapiens, UniProt P43220))
## Result 46.3

* * *

Molecular target: hGLP-1R (Homo sapiens)
Sequence (P43220 24-463): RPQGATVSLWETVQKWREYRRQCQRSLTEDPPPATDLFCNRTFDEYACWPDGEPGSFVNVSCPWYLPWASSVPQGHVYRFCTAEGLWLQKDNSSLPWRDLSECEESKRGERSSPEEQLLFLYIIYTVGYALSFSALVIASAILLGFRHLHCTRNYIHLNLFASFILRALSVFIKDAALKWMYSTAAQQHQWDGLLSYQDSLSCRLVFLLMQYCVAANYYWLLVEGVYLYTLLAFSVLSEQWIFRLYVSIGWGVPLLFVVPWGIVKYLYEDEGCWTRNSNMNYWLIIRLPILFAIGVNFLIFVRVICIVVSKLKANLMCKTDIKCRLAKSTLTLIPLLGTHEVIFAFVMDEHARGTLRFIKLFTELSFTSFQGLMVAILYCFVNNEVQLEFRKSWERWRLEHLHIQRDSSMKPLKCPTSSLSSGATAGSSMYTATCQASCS
Test: Functional cAMP activation in the presence of 0.1% casein (no HSA);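 note: intracellular cAMP rise after 30 min at 37 °C read by HTRF, normalized between buffer only (0%) and maximal control ligand (100%), four-parameter variable-slope fit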
Assay type: cell-based
Conditions: in the presence of 0.1% casein (no HSA); geometric mean; read-out: Relative cAMP EC50, hGLP-1R
Starred links: 1 amine or outer side, 2 acyl side, 3 side chain; linkers in the order of their positions; H or OH if unused. Non-standard residues stand in square brackets, D forms with d. Groups on a side chain read outwards from the residue. No end group written: not given here. *: point of attachment. C18 diacid = O=C(O)CCCCCCCCCCCCCCCCC(=O)*; γGlu = O=C(O)[C@H](CCC(=O)[*:2])N[*:1]; αMe4Pal = C[C@](N)(Cc1ccncc1)C(=O)O; αMeY = C[C@](N)(Cc1ccc(O)cc1)C(=O)O; 4Pal = N[C@@H](Cc1ccncc1)C(=O)O; αMeL = CC(C)C[C@](C)(N)C(=O)O; Orn = NCCC[C@H](N)C(=O)O; AEEA = NCCOCCOCC(=O)O; Aib = CC(C)(N)C(=O)O
PARAMETER: EC50 (nM)
Write it as a number; the unit nM goes unstated.

Record excerpt, results attached:
SUBSTANCE	TEST VALUE
H-Y[Aib]QGTFTSD[4Pal]S[Orn][αMeL]LDKK([AEEA-γGlu-C18 diacid])AQ[Aib]AFIEWLLEGGPSSGEPPPSGE-NH2 [Example 115]	7.6
H-Y[Aib]QGTFTSD[4Pal]SQ[αMeL]LD[Orn]K([AEEA-γGlu-C18 diacid])AQ[αMe4Pal]AFI[dE][αMeY]LIEGGPSSGAPPPSGSEE-NH2 [Example 1042]	10.3
H-Y[Aib]QGTFTSDFS[Orn][αMeL]LDKK([AEEA-AEEA-γGlu-C18 diacid])AQ[Aib]AFIEYLLEGGPSSGAPPPSGE-NH2 [Example 107]	8.5

## Task Find the recorded EC50 belonging to H-Y[Aib]QGTFTSD[4Pal]SQ[αMeL]LDKK([AEEA-γGlu-C18 diacid])AQ[αMe4Pal]AFIEYLIE[Aib]GESSGAPPPSGE-NH2 [Example 227] and report it.
## Result 2.34

## Task Find the recorded EC50 belonging to Y[Aib]QGTFTSD[4Pal]S[Orn][αMeL]LDKK([γGlu-γGlu-C18 diacid])AQ[Aib]AFIE[αMeY]LLEGGPSSGAPPPSGSEE-NH2 [Example 944] and report it.
## Result 4.86

## Task Which EC50 value belongs to H-Y[Aib]QGTFTSDFSK[αMeL]LDKK([AEEA-γGlu-C18 diacid])AQ[Aib]AFIEYLLE[Aib]GPSSGEPPPSEG-NH2 [Example 46] ?
## Result 4.04
